Molecular target: Recombinant Human TNF-α/TNFSF1A (human, UniProt P01375 77-233)
Sequence (P01375 77-233 limits assumed): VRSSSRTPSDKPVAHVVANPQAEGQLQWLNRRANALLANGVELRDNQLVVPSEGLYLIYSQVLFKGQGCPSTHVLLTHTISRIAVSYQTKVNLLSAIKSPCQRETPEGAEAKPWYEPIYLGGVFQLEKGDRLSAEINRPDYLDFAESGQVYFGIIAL
Assay: cell-based or functional assay
Endpoint: TNF-α neutralization assay IC50 (nM), L929 cells
The reply should contain only the number, in nM.

Answered cases to consult:
AB257 (antibody, V domains shown, also called hMAK195VH.2a / hMAK195VL.1a) VH: EVQLVESGGGLVQPGGSLRLSCAVSGFTLSDYGVNWVRQAPGKGLEWLGMIWGDGSTDYDSTLKSRLTISKDNSKSTIYLQMNSLRAEDTAVYYCAREWHHGPVAYWGQGTLVTVSS VL: DIQMTQSPSSLSASVGDRVTITCKASQAVSSAVAWYQQKPGKSPKLLIYWASTRHTGVPSRFSGSGSGTDFTLTISSLQPEDFATYYCQQHYSTPFTFGQGTKLEIK
0.077
AB240 (antibody, V domains shown, also called hMAK195VH.1 / hMAK195VL.1) VH: EVQLQESGPGLVKPSETLSLTCTVSGGSISDYGVNWIRQPPGKGLEWIGMIWGDGSTDYDSTLKSRVTISVDTSKNQFSLKLSSVTAADTAVYYCAREWHHGPVAYWGQGTLVTVSS VL: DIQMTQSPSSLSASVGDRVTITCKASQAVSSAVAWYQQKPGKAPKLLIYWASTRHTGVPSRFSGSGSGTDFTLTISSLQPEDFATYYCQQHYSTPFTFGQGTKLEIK
14.2
AB248 (antibody, V domains shown, also called hMAK195VH.1b / hMAK195VL.1) VH: EVQLQESGPGLVKPSETLSLTCTVSGFSLSDYGVNWIRQPPGKGLEWIGMIWGDGSTDYDSTLKSRVTISKDTSKNQFSLKLSSVTAADTAVYYCAREWHHGPVAYWGQGTLVTVSS VL: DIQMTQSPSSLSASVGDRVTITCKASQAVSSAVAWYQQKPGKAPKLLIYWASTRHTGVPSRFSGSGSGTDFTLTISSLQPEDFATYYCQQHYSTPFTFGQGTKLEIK
0.213
AB255 (antibody, V domains shown, also called hMAK195VH.2 / hMAK195VL.2a) VH: EVQLVESGGGLVQPGGSLRLSCAASGFTFSDYGVNWVRQAPGKGLEWVSMIWGDGSTDYDSTLKSRFTISRDNSKNTLYLQMNSLRAEDTAVYYCAREWHHGPVAYWGQGTLVTVSS VL: EIVMTQSPATLSLSPGERATLSCKASQAVSSAVAWYQQKPGQSPRLLIYWASTRHTGVPARFSGSGSGTDFTLTISSLQPEDFAVYYCQQHYSTPFTFGQGTKLEIK
0.477
AB241 (antibody, V domains shown, also called hMAK195VH.1 / hMAK195VL.1a) VH: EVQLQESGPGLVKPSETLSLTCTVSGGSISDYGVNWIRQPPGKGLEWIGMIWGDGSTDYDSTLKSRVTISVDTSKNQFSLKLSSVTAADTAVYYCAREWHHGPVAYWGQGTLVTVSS VL: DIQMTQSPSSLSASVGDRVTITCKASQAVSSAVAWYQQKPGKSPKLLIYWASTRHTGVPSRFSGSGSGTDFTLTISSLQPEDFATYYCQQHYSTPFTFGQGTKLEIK
5.33

Task: Could you tell me which TNF-α neutralization assay IC50 (nM), L929 cells is on file for AB249 (antibody, V domains shown, also called A3249; hMAK195VH.1b / hMAK195VL.1a) VH: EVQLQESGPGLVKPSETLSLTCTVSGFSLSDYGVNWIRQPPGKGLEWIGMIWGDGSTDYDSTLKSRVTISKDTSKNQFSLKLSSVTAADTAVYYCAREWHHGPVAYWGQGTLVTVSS VL: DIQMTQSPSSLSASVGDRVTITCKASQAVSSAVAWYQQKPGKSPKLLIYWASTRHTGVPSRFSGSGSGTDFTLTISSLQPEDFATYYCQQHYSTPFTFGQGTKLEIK ?
Output: 0.245

Task: Could you tell me which TNF-α neutralization assay IC50 (nM), L929 cells is on file for AB252 (antibody, V domains shown, also called hMAK195VH.2 / hMAK195VL.1) VH: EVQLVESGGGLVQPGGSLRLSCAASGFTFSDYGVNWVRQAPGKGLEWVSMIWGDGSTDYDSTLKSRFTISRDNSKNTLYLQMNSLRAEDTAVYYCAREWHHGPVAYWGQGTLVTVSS VL: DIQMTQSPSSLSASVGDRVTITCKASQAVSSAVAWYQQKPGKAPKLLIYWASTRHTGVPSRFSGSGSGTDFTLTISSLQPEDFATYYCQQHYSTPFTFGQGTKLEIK ?
Output: 0.222

Task: Could you tell me which TNF-α neutralization assay IC50 (nM), L929 cells is on file for AB244 (antibody, V domains shown, also called hMAK195VH.1a / hMAK195VL.1) VH: EVQLQESGPGLVKPSETLSLTCTVSGFSLSDYGVNWVRQPPGKGLEWLGMIWGDGSTDYDSTLKSRLTISKDNSKSQISLKLSSVTAADTAVYYCAREWHHGPVAYWGQGTLVTVSS VL: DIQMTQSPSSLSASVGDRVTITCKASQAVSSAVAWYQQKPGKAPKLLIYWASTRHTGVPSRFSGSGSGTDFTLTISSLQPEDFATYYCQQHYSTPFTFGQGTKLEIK ?
Output: 0.155

Task: Could you tell me which TNF-α neutralization assay IC50 (nM), L929 cells is on file for AB250 (antibody, V domains shown, also called hMAK195VH.1b / hMAK195VL.2) VH: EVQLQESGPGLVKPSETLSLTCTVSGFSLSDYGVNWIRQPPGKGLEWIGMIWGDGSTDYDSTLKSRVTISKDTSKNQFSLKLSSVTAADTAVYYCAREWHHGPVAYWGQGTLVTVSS VL: EIVMTQSPATLSLSPGERATLSCKASQAVSSAVAWYQQKPGQAPRLLIYWASTRHTGIPARFSGSGSGTDFTLTISSLQPEDFAVYYCQQHYSTPFTFGQGTKLEIK ?
Output: 0.301

Task: Could you tell me which TNF-α neutralization assay IC50 (nM), L929 cells is on file for AB253 (antibody, V domains shown, also called hMAK195VH.2 / hMAK195VL.1a) VH: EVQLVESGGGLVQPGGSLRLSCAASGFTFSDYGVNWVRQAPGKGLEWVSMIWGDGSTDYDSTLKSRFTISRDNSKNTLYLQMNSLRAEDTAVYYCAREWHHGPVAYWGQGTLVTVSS VL: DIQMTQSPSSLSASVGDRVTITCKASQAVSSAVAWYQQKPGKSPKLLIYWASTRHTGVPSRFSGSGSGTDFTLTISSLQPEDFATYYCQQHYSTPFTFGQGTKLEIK ?
Output: 0.279
